pKi: −log10 of the molar value.
Multiple publications report pKi for Coagulation factor X (Homo sapiens); what follows is a combined list.
measured-property: pKi

>>> print(df.to_string())
                                    compound  bound_type  value_measured
 0  Cc1c(F)c(Oc2cccc(C(=N)N)c2)nc(Oc2cccc(C(=O)O)c2)c1F           =            5.30
 1  N=C(N)c1cccc(Cn2c(C(=O)NCc3ccc(Cl)cc3)cc3ccccc32)c1           =            5.44
 2  COc1ccc(C(=O)NCC2CCN(c3ccc(Cl)cc3)CC2)cc1OCCc1ccc(Cl)cc1Cl           =            5.00
 3  CC(=O)N1CCC(Oc2ccc(NC/C=C/c3cc(C(=N)N)ccc3O)cc2C(F)(F)F)CC1           =            7.73
 4  COC(=O)CN(C1CCCN(c2ccc(-n3ccnc3C[N+](C)(C)CC(=O)OC)cc2F)C1=O)S(=O)(=O)c1ccc2cc(Cl)ccc2c1 (configuration not stated)           =            9.68
 5  NCCCCC(NC(=O)CN(CC1(c2ccccc2)CC1)C(=O)CCc1ccccc1)B(O)O (configuration not stated)           =            6.36
 6  CCCCCC(NC(=O)[C@@H]1CCCN1C(=O)[C@H](Cc1ccccc1)NC(=O)OCc1ccccc1)B1O[C@@H]2CC3CC(C3(C)C)[C@]2(C)O1 (stereo in doubt; 3)           =            6.24
 7  NCCCCNC(=O)[C@@H]1Cc2ccc(cc2)NC(=O)CCN2CCN(CCC(=O)Nc3ccc(cc3)C[C@@H](NS(=O)(=O)NC3CCCCC3)C(=O)N1)CC2           =            4.40
 8  Nc1noc2ccc(-n3nc(C(F)(F)F)cc3C(=O)Cc3ccc(-c4ccccc4CN4CCCC4)cc3)cc12           =            9.49
 9  CC(NC(=O)CNC(=O)Nc1ccc(C(=N)N)cc1)c1ccc(NC(=O)C2CCNCC2)cc1 (configuration not stated)           <            5.00
10  Nc1cc(-n2nnnc2C(=O)Nc2ccc(-c3ccccc3S(N)(=O)=O)cn2)ccc1Cl           =            8.10
11  CCc1nc2cc(OC3CCN(C(C)=N)CC3)ccc2n1Cc1ccc2ccc(C(=N)N)cc2c1           =            8.40
12  CC(C)(C)OC(=O)/C=C/c1nc(Cc2ccccc2)n(CC(=O)N[C@@H](CCCCN)B2O[C@@H]3C[C@@H]4C[C@@H](C4(C)C)[C@]3(C)O2)n1           <            5.22
13  N=C(N)c1cc2c(OC(COC(=O)Nc3ccc(F)cc3F)c3ccccc3)cccc2s1 (configuration not stated)           =            5.83
14  Cc1c(F)c(Oc2cccc(C(=N)N)c2)nc(Oc2cccc(C(=O)N3CCN(C)CC3)c2)c1F           <            5.30
15  COc1ccc(-n2nc(C(N)=O)c3c2C(=O)N(c2ccc(C(C)(C)CN4CCCCC4=O)cc2)CC3)cc1           =            8.82
16  COc1ccc(-n2nc(C(F)(F)F)c3c2C(=O)N(c2ccc(-c4ccccc4CN4CCC(O)C4)cc2)CC3)cc1 (configuration not stated)           =            9.30
17  Cn1cc(C(=O)Nc2ccc(-c3ccccc3S(N)(=O)=O)cc2)c(-c2cccc(C(=N)N)c2)n1.O=C(O)C(F)(F)F           =            9.70
18  N=C(N)c1cccc(Cn2c(C(=O)NCc3cccc(Cl)c3)cc3c(O)cccc32)c1           =            6.58
19  N=C(N)c1ccc(-n2c3ccccc3c3ccc(OCc4ccc5ccc(C(=N)N)cc5c4)cc32)cc1           =            7.22
20  Cc1cc(C(=O)Nc2ccc(-c3ccccc3S(N)(=O)=O)cc2)n(-c2ccc3onc(N)c3c2)n1           =            8.85
21  NC(=O)NCC1(C(=O)Nc2ccc(-c3ccccc3S(N)(=O)=O)cn2)CC(c2ccc(Cl)c(N)c2)=NO1 (racemic)           =            8.60
22  N=C(N)c1ccc(CNC(=O)CNS(=O)(=O)c2ccc3ccccc3c2)cc1           =            4.97
23  CC[C@H](C)[C@H](NS(=O)(=O)Cc1cccc(C(=O)O)c1)C(=O)N[C@@H](CCC(N)=O)C(=O)NCc1ccc(C(=N)N)cc1           =            6.16
24  COc1ccc(-n2nc(C)cc2C(=O)Nc2ccc(-c3ccccc3S(N)(=O)=O)cc2)cc1           =            7.96
25  Cc1cc(C)cc(CCN(CC(=O)NC(CCCCN)B(O)O)C(=O)CCc2ccccc2)c1 (configuration not stated)           =            7.27
26  CCOC(=O)[C@@H]1CCCCC1NC(=O)C(Cc1ccccc1)C1=CS(=O)(=O)c2ccc(C(=N)N)cc21 (some centres not stated)           <            5.05
27  C[C@@H](O)[C@H](NS(=O)(=O)Cc1cccc(C(=O)O)c1)C(=O)N[C@@H](CCC(N)=O)C(=O)NCc1ccc(C(=N)N)cc1           =            4.83
28  O=C1CN(S(=O)(=O)c2cc3ccc(Cl)cc3s2)CCN1Cc1nc2cc[nH]cc-2n1           <            5.92
29  CC(C)(C)CC(=O)NCc1nc(Cc2ccccc2)n(CC(=O)N[C@@H](CCCCN)B2O[C@@H]3C[C@@H]4C[C@@H](C4(C)C)[C@]3(C)O2)n1           =            5.37
30  CN1CCC(Oc2ccc(NC/C=C/c3cc(C(=N)N)ccc3O)cc2C(F)(F)F)CC1           =            9.24
31  NC[C@H]1CC[C@H](C(=O)N[C@@H](Cc2ccccc2)c2nc(-c3ccc(C(N)=O)cc3)c(F)[nH]2)CC1.O=C(O)C(F)(F)F           =            5.86
